Field: Percent Effect. Provide a value for each of the compounds that follow.
Experimental System: AMP-activated protein kinase, AMPK (Homo sapiens) (UniProt P54646+O43741+P54619+Q9UGJ0+Q9Y478+Q13131+Q9UGI9)
Assay Details: AMP-dependent Kinase enzyme assay. An in vitro enzyme assay that detects ADP turnover that is directly proportional to AMPK activity. This uses naive AMPK that is activated during the assay with MK-8722
Assay type: functional
Set-up: scale not given: direction of the effect not stated beside the values
Condition Context: 30 µM
Remember to put the unit after the number in your answer.

Percent Effect recorded for this compound, COC[C@@H]1CCC[C@]12CN(Cc1cccc(C)n1)CCO2 , is 0.13%

In plain terms, c1cncc(COC[C@H]2CC[C@H]3[C@H](CCN3Cc3cccs3)O2)c1 has a documented Percent Effect of 3.86%

# Percent Effect (compound: COc1cccc(CCNCc2c(C)nn(C)c2N(C)C)c1 ) is -2.73%

For reference, reported Percent Effect for NC1(c2nc(C(F)(F)F)cc(=O)[nH]2)CCCC1 stands at -4.13%

The value of Percent Effect measured for the compound Cc1nc(N(C)C)nc2c1COCC21CCN(CC2CC2)C1 (stereo not given) turned out to be -0.232%

###

Experimental System: Shiga toxin 2 (Escherichia coli O157:H7) (UniProt P09385+P09386)
Assay Details: E. coli 0.157:H7 Shiga Toxin SOP - stx2 screening assay
Type: functional
Parameters: scale not given: direction of the effect not stated beside the values
Condition Context: 30 µM
Record form. Attribute: Percent Effect. Fill in for each entry.
Number in %, nothing else.

Just so you know, measured Percent Effect for CC(Cn1cccn1)NC(=O)NCc1ccccn1 (centres undefined) came out at -30.2

Entry O=C1CC[C@H]2[C@H](CCN2C(=O)C2CCOCC2)N1Cc1ccncc1 , Percent Effect reported as -35.2

Per the record, CC(NC1(CNC(=O)C(C)(C)C#N)CCOCC1)c1ccccc1 (centres undefined) has Percent Effect of -10.5

Documented Percent Effect of CN(CCN1CCOCC1)C(=O)CCc1cccc(Cl)c1 : -13.5

###

Experimental System: Shiga toxin 2 (Escherichia coli O157:H7) (UniProt P09385+P09386)
Assay Details: E. coli 0.157:H7 Shiga Toxin SOP - stx2 screening assay
Type: functional
Parameters: scale not given: direction of the effect not stated beside the values
Condition Context: 30 µM
Parameter Measured: Percent Effect (%)
The answer is to be given in %; state only the numeric part.

Reading of Percent Effect for Cc1nc(CN2C(=O)C[C@@H]3[C@@H]2CCN3C(=O)C2CCOCC2)cs1 with Shiga toxin 2 (Escherichia coli O157:H7) (UniProt P09385+P09386): -52.6

Percent Effect on Shiga toxin 2 (Escherichia coli O157:H7) (UniProt P09385+P09386) for CC(C)COC(C)C(=O)NCc1cc(F)cc(F)c1 (centres undefined) is 27.6

CN(CC1CC1)C(=O)CN(Cc1cccc(O)c1)C1CCC(O)CC1 (centres undefined) tested on Shiga toxin 2 (Escherichia coli O157:H7) (UniProt P09385+P09386) gave Percent Effect: 6.41

Shiga toxin 2 (Escherichia coli O157:H7) (UniProt P09385+P09386) assay, compound O=C(NCCN1CCOCC1)NCC(O)c1cccc(F)c1 (centres undefined) , recorded Percent Effect = 4.91

Tested on Shiga toxin 2 (Escherichia coli O157:H7) (UniProt P09385+P09386), the item CCCNCc1cn(C)nc1-c1cccnc1 showed Percent Effect equal to -14.7

Short answer on Shiga toxin 2 (Escherichia coli O157:H7) (UniProt P09385+P09386) for COc1cccc(OCCNC(=O)CN2CCN(C)CC2C)c1 (centres undefined) , Percent Effect: -14.9

Assay Shiga toxin 2 (Escherichia coli O157:H7) (UniProt P09385+P09386), sample CSc1ccccc1CN1CCn2nc(CNC(C)=O)cc2C1 , Percent Effect read: -66.1

Bench note, Shiga toxin 2 (Escherichia coli O157:H7) (UniProt P09385+P09386): entry Cc1ccc(C(=O)NC2CCN(Cc3noc(CC(C)C)n3)CC2)s1 , its Percent Effect = -63.2

Observed Percent Effect, Shiga toxin 2 (Escherichia coli O157:H7) (UniProt P09385+P09386), CCc1nc(C2CCCN2CC(=O)Nc2c(C)nn(C)c2C)no1 (centres undefined) : -7.62

Shiga toxin 2 (Escherichia coli O157:H7) (UniProt P09385+P09386) Percent Effect of Cc1nc(CN(C)C2CCN(Cc3sc(C)nc3C)C2)no1 (centres undefined) is -0.768

Short answer on Shiga toxin 2 (Escherichia coli O157:H7) (UniProt P09385+P09386) for Cc1cc(NC(=O)N(CC2CCOC2)C2CC2)no1 (centres undefined) , Percent Effect: -2.82

Readout Percent Effect for O=C1CC(c2cccnc2)C2(CCN(S(=O)(=O)C3CC3)CC2)N1 (centres undefined) , test system Shiga toxin 2 (Escherichia coli O157:H7) (UniProt P09385+P09386), was 4.96

Entry CCN1CCC2(COCc3cnc(-c4cccnc4)nc32)C1 (centres undefined) ; assay system Shiga toxin 2 (Escherichia coli O157:H7) (UniProt P09385+P09386); Percent Effect recorded at 8.79

Let me check: CC(C)c1nccn1C1CCCN(C(=O)c2ccnc(N(C)C)c2)C1 (centres undefined) , system Shiga toxin 2 (Escherichia coli O157:H7) (UniProt P09385+P09386), measured Percent Effect is -29.7

Fill in: Shiga toxin 2 (Escherichia coli O157:H7) (UniProt P09385+P09386) Percent Effect for Cc1cc(C[C@@H]2CCC[C@H]2NCc2cc(C)c(O)c(C)c2)on1 = -2.65

Reported Shiga toxin 2 (Escherichia coli O157:H7) (UniProt P09385+P09386) Percent Effect for item Cn1c(CNc2c(F)cccc2-n2cccn2)cc(=O)n(C)c1=O was 0.236

Result for CNC(=O)c1cc2c(nc1NC(C)C)CCN(C(=O)NC(C)C)CC2 , tested on Shiga toxin 2 (Escherichia coli O157:H7) (UniProt P09385+P09386), Percent Effect: 0.412

Percent Effect for Shiga toxin 2 (Escherichia coli O157:H7) (UniProt P09385+P09386) with input Cc1cc(CNC(=O)C2CCCCN2C(=O)OC(C)(C)C)no1 (centres undefined) equals 10.5

// compound CC(NC(=O)CCCOc1ccccc1Cl)c1ccncc1 (centres undefined) , assay Shiga toxin 2 (Escherichia coli O157:H7) (UniProt P09385+P09386), Percent Effect value: -35

Percent Effect for Shiga toxin 2 (Escherichia coli O157:H7) (UniProt P09385+P09386) with input Cc1cnn(CC2CCCN2C(=O)c2cccc(-n3cnnn3)c2)c1 (centres undefined) equals 9.64

Percent Effect of Cc1nc(CN2CCn3cc(CNC(=O)C4CCC4)nc3C2)cs1 , assay on Shiga toxin 2 (Escherichia coli O157:H7) (UniProt P09385+P09386), is -50.1

Shiga toxin 2 (Escherichia coli O157:H7) (UniProt P09385+P09386) Percent Effect of CC1(C(=O)N2CCOCC2)CN(Cc2ccccn2)CCO1 (centres undefined) is -6.1

Percent Effect of Cc1ccc(-c2cn[nH]c2C2CCCN(c3nccc(N)n3)C2)cc1 (centres undefined) , assay on Shiga toxin 2 (Escherichia coli O157:H7) (UniProt P09385+P09386), is -37.9

Summary line: COC(=O)N1CCCN(C(=O)NCc2ccc(Cl)s2)CC1 , Shiga toxin 2 (Escherichia coli O157:H7) (UniProt P09385+P09386), reported Percent Effect = -16.1

###

Experimental System: Shiga toxin 2 (Escherichia coli O157:H7) (UniProt P09385+P09386)
Assay Details: E. coli 0.157:H7 Shiga Toxin SOP - stx2 screening assay
Assay type: functional
Set-up: scale not given: direction of the effect not stated beside the values
Condition Context: 30 µM
Provide the recorded Percent Effect for the entries that follow.
Give just the number in %; leave the unit off.

Documented Percent Effect of CC(=O)N1CC(=O)N(c2ccccc2)CC12CCN(Cc1nccs1)C2 (stereo not given) : -17.5

The compound identified as O=C(CCc1cccs1)N1CCCCC1Cn1cccn1 (stereo not given) registered its Percent Effect at 1.06

CS(=O)(=O)NC[C@@H]1OC[C@H]2CN(C(=O)c3ccc[nH]3)CC[C@H]21 has a reported Percent Effect of 0.898

// Percent Effect lookup, compound = COCCNC(=O)c1sc(Nc2ccc(Cl)cn2)nc1C , result: -31.4

// sample CCCc1nc(CN2CCOC(Cn3cncn3)C2)no1 (stereo not given) , its Percent Effect was -23.1

Sample CC(C)c1nn(C)c(N2CCOCC2)c1CN[C@H](C)CO ; Percent Effect observed: 30.8

compound Cc1nnc(NCC2(c3ccc(Cl)cc3Cl)CCOCC2)c(C#N)c1C , Percent Effect observed: -16.4

# Percent Effect of CS(=O)(=O)N[C@@H]1CCO[C@]2(CCN(C(=O)C3=CCCC3)C2)C1 = -0.907

Form field Percent Effect, entry Cc1n[nH]c(C)c1C1COCCN1C(=O)Cc1cccc(F)c1 (stereo not given) : -14.1

Query Cc1cnn(C(C)C2CC2)c1NC(=O)c1ccncc1 (stereo not given) yields Percent Effect of 1.34

Lab note: measured Percent Effect of CC(Cn1cccn1)NC(=O)N(C)Cc1ccc(Cl)s1 (stereo not given) was -6.54

Lab note: measured Percent Effect of COCC(NC(=O)c1cc[nH]n1)c1cccc(C(F)(F)F)c1 (stereo not given) was -7.89

Recorded Percent Effect (compound Cc1cc(C)n(Cc2ccc(C(=O)NCCN3CCOCC3)cc2)n1 ): 6.83

Summary for this compound, C=C1c2ccccc2C(=O)N1CCC(=O)N1CCNC(=O)C1 : Percent Effect is 25.2

The reported Percent Effect of the compound CN(C)C(=O)c1ccc(CNC(=O)NCCN(C)C2CCCC2)cc1 was 14.3

Source: ChEMBL document CHEMBL3988442
